target_entity: T1, PcYap1 (Penicillium chrysogenum Wis54-1255 (P. …, UniProt B6HDY4 1-582))
T1 sequence: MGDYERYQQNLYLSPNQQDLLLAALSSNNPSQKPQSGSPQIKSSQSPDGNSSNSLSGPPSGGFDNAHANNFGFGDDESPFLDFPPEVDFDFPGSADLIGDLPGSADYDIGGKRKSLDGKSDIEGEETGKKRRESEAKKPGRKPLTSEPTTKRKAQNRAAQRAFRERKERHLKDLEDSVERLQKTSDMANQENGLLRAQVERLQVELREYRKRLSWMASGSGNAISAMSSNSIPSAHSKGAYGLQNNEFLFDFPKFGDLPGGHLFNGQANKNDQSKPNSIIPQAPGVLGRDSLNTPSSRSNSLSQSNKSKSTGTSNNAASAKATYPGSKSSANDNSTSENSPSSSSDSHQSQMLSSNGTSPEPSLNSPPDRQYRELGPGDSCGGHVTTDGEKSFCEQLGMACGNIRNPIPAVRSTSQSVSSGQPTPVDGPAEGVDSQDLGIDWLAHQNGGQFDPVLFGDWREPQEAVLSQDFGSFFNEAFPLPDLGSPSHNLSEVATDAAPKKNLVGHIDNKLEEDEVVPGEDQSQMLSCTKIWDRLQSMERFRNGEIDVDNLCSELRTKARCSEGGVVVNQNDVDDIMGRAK
protocol_text: EMSA; LightShift binding buffer 1X, about 10% glycerol, 5 mM MgCl2, 20 fmol biotin probe, 10 ug protein, 20 uL, room temperature 20 min; 5% native PAGE in 0.5X TBE; pH and salt not given
condition_set: protein: recombinant; tags: C-terminal c-myc-6xHis; chain copies: 2; label: 3' biotin; blunt
measured_metric: binding result

Some entries whose results are on file:
penDE-CRE123 (dsDNA) DNA 1: AGGTCCTGCATTAGCGTACGCCCCAGGTTTAGATCAAAGTTACGTAATTTATATGTA DNA 2: TACATATAAATTACGTAACTTTGATCTAAACCTGGGGCGTACGCTAATGCAGGACCT ... no binding
PTA1-WT (dsDNA) DNA 1: GCCAGTGTAAAATTAGTAACCGTATCTC DNA 2: GAGATACGGTTACTAATTTTACACTGGC ... binds
AP1-brlA-Mut (dsDNA) DNA 1: AAAACAATACAATTGACTAGAGTCCACTGGGCA DNA 2: TGCCCAGTGGACTCTAGTCAATTGTATTGTTTT ... no binding
PTA1-M1 (dsDNA) DNA 1: GCCAGTGTAAAACTAGTCACCGTATCTC DNA 2: GAGATACGGTGACTAGTTTTACACTGGC ... no binding

Continue with the next binder.
Look up binding result of AP1-brlA (dsDNA) DNA 1: AAAACAATACAATTTACTAAAGTCCACTGGGCA DNA 2: TGCCCAGTGGACTTTAGTAAATTGTATTGTTTT and report it.
binds
